The reported numbers originate from ChEMBL document CHEMBL3507680.

Experiment: Human HepG2 cell viability assay in 384 well format
Assay type: toxicity, cell-based
Set-up: dose 125 nL, time 70.5 hour; concentration not given beside the values
Conditions: HepG2 cells, read-out: Inhibition
measurement name: cytotoxicity at 70.5 h (%)
# output: bare number, implied unit %

>>> reported_measurement("COCCCN1CC2(CCN(C(=O)c3ncc(F)cc3F)CC2)CC1=O")
-9.33

Challenge: Param item = CCc1nnc(Nc2cc(C)nc(C3CN(C(C)=O)CCO3)c2)s1 (stereo not drawn) ; retrieve measured cytotoxicity at 70.5 h.
Response given: 0.483

Challenge: Param item = COc1ccccc1C1(C(=O)NCCN2CCOCC2)CCOCC1 ; retrieve measured cytotoxicity at 70.5 h.
Response given: -17.1

Challenge: Param item = COCCN(Cc1sccc1C)C(=O)C1CCN(C(C)C)CC1 ; retrieve measured cytotoxicity at 70.5 h.
Response given: -2.9
